TARGET_OR_TEST_SYSTEM: UniProtKB P10828
Sequence (P10828 whole entry): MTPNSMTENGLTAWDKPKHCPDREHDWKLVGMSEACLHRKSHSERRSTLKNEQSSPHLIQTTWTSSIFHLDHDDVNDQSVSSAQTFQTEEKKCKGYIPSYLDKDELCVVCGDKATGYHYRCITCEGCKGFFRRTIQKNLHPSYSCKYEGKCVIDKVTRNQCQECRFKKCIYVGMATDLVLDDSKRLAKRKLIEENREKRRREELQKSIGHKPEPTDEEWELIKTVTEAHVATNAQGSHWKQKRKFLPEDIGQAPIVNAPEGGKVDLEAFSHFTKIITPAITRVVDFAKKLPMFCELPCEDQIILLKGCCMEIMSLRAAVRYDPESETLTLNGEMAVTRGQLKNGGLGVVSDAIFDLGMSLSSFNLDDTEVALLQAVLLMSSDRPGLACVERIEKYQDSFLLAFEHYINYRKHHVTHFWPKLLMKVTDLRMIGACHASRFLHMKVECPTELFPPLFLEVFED
ASSAY_PROCEDURE: Binding affinity at human TRbeta1
pIC50: −log10 of the molar value.
Short version: pIC50 at least 7 is YES, less is NO.

Cc1ccccc1COc1c(Br)cc(CCC(=O)O)cc1Br: NO
O=C(O)CCc1cc(Br)c(OCc2cccc(Br)c2)c(Br)c1: YES
Cc1ccc(COc2c(Br)cc(CCC(=O)O)cc2Br)cc1: NO
CCNc1cccc(COc2c(Br)cc(CCC(=O)O)cc2Br)c1: YES
Nc1cccc(COc2c(Br)cc(CCC(=O)O)cc2Br)c1: NO
O=C(O)CCc1cc(Br)c(OCc2ccccc2)c(Br)c1: NO

[ask] Check if pIC50 >= 7 (inclusive). Item: O=C(O)CCc1cc(Br)c(OCc2cccc(Cl)c2)c(Br)c1
[reply] NO

====

Readings of Ratio IC50 for the listed compounds
Species on record: Homo sapiens
ASSAY_PROCEDURE: Selectivity for human TR-alpha-1 to human TRbeta1
Please respond with just the number, no unit label.

Consider the worked cases shown below.
Nc1cccc(COc2c(Br)cc(CCC(=O)O)cc2Br)c1: 4.5
O=C(O)CCc1cc(Br)c(OCc2cccc(C(F)(F)F)c2)c(Br)c1: 1.4
Cc1cccc(COc2c(Br)cc(CCC(=O)O)cc2Br)c1: 1.8

// sample CCN(CC)c1cccc(COc2c(Br)cc(CCC(=O)O)cc2Br)c1 , its Ratio IC50 was 3.2

// sample O=C(O)CCc1cc(Br)c(OCc2cccc(Cl)c2)c(Br)c1 , its Ratio IC50 was 1.5

// sample O=C(O)CCc1cc(Br)c(OCc2ccccc2)c(Br)c1 , its Ratio IC50 was 1.7

====

TARGET_OR_TEST_SYSTEM: UniProt:P10827
Sequence (P10827 whole entry): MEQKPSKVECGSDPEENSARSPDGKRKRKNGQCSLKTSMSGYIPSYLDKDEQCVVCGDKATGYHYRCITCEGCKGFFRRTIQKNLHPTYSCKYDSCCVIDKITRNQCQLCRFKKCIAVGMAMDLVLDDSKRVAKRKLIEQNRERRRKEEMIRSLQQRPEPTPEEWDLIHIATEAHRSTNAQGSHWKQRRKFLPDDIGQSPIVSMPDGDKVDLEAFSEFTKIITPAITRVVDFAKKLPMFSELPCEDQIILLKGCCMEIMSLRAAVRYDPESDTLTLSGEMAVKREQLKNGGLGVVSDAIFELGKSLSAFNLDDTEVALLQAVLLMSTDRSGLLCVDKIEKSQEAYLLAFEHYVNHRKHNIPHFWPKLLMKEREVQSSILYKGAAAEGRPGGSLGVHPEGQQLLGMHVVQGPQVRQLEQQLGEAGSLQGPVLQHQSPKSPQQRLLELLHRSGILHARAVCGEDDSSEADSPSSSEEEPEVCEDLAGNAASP
MEASURE_NAME: EC50 (µM)
Express it in µM; write the number only.

Noted EC50 for CCNc1cccc(COc2c(Br)cc(CCC(=O)O)cc2Br)c1 , tested on UniProt:P10827: 0.023

====

TARGET_OR_TEST_SYSTEM: UniProt:P10275
Sequence (P10275 whole entry): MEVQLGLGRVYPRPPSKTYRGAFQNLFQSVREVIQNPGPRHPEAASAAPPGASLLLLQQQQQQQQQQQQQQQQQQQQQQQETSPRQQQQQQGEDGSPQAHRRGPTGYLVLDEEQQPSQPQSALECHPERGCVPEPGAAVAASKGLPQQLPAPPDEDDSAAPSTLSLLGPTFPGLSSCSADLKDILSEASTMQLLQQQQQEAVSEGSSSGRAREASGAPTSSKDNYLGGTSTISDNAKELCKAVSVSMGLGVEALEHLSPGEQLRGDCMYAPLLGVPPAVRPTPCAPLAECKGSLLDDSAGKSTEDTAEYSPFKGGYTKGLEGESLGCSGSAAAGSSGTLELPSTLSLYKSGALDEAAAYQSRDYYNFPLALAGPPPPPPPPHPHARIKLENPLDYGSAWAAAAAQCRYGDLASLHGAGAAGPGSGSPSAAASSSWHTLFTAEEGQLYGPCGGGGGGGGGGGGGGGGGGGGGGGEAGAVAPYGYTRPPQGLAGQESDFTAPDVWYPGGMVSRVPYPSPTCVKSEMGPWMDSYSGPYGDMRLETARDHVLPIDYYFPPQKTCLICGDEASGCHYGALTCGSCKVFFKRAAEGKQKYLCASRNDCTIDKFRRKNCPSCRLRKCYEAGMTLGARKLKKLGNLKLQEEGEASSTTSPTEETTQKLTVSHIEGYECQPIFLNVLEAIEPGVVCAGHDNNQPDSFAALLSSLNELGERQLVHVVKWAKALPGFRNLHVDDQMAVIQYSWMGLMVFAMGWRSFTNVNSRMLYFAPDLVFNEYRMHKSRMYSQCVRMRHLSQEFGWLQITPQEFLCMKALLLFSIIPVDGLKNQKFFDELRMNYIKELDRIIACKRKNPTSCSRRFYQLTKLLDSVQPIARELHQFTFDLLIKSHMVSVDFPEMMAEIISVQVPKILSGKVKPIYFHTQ
MEASURE_NAME: IC50 (µM)
Express it in µM; write the number only.

// sample O=C(O)CCc1cc(Br)c(OCc2cccc(Br)c2)c(Br)c1 , its IC50 was 7.7
